# System: Puccinia recondita f sp. tritici
# protocol.description: Test F: wheat leaf rust, preventive spray on wheat seedlings
# condition.context: 10 ppm test solution; 100 = 100% disease control, 0 = no control relative to controls
quantity.kind: Test F disease control rating (%)

[[record]]
compound = "CC(C)(C)C(O)(Cn1cncn1)C1=NOC(COc2cccc(Br)c2)C1 (single isomer, unassigned) [Compound 232]"
unit_text = "%"
reading = 100

[[record]]
compound = "CC(C)(C)CC(O)(Cn1cncn1)C1=NOC(COc2ccc(C(F)(F)F)cc2)C1 (single isomer, unassigned) [Compound 241]"
unit_text = "%"
reading = 99

[[record]]
compound = "CC(C)(C)C(O)(Cn1cncn1)C1=NOC(CCOc2ccc(F)cc2)C1 (single isomer, unassigned) [Compound 269]"
unit_text = "%"
reading = 100

[[record]]
compound = "CCC(C)(C)C(O)(Cn1cncn1)C1=NOC(COc2ccc(F)cc2)C1 (single isomer, unassigned) [Compound 249]"
unit_text = "%"
reading = 100

[[record]]
compound = "OC(Cn1cncn1)(C1=NOC(COc2ccc(Cl)cc2)C1)C1(Cl)CC1 (single isomer, unassigned) [Compound 251]"
unit_text = "%"
reading = 100

[[record]]
compound = "CC(C)(C)C(O)(Cn1cncn1)C1=NOC(COCc2ccc(Cl)cc2)C1 (single isomer, unassigned) [Compound 264]"
unit_text = "%"
reading = 0

[[record]]
compound = "CC1(C(O)(Cn2cncn2)C2=NOC(COc3ccc(C(F)(F)F)cc3)C2)CC1 (single isomer, unassigned) [Compound 237]"
unit_text = "%"
reading = 100

[[record]]
compound = "CC1(C(O)(Cn2cncn2)C2=NOC(COc3ccc(Br)cc3)C2)CC1 (single isomer, unassigned) [Compound 239]"
unit_text = "%"
reading = 100

[[record]]
compound = "CC(C)(C)C(O)(Cn1cnnn1)C1=NOC(COc2ccc(Cl)cc2)C1 (stereo not drawn) [Compound 247]"
unit_text = "%"
reading = 97

[[record]]
compound = "CC(C)(C)CC(O)(Cn1cncn1)C1=NOC(COc2ccc(F)cc2)C1 (single isomer, unassigned) [Compound 245]"
unit_text = "%"
reading = 98

[[record]]
compound = "CC(C)(C)CC(O)(Cn1cncn1)C1=NOC(Cc2ccc(C(F)(F)F)cc2)C1 (single isomer, unassigned) [Compound 227]"
unit_text = "%"
reading = 100

[[record]]
compound = "CC1(C(O)(Cn2cncn2)C2=NOC(COc3ccc(Cl)cc3)C2)CC1 (single isomer, unassigned) [Compound 225]"
unit_text = "%"
reading = 100

[[record]]
compound = "Cc1ccc(OCC2CC(C(O)(Cn3cncn3)C(C)(C)C)=NO2)cc1 (single isomer, unassigned) [Compound 235]"
unit_text = "%"
reading = 87

[[record]]
compound = "CC(C)(C)C(O)(Cn1cncn1)C1=NOC(COc2ccc(Cl)c(Cl)c2)C1 (single isomer, unassigned) [Compound 258]"
unit_text = "%"
reading = 100

[[record]]
compound = "CC1(COc2ccc(Cl)cc2)CC(C(O)(Cn2cncn2)c2ccc(Cl)cc2)=NO1 (single isomer, unassigned) [Compound 218]"
unit_text = "%"
reading = 100

[[record]]
compound = "CC(C)(C)C(O)(Cn1cncn1)C1=NOC(CCOc2ccc(F)cc2)C1 (single isomer, unassigned) [Compound 270]"
unit_text = "%"
reading = 100

[[record]]
compound = "CC(C)(C)C(O)(Cn1cncn1)C1=NOC(COc2ccc(Cl)cc2)C1 (single isomer, unassigned) [Compound 242]"
unit_text = "%"
reading = 99

[[record]]
compound = "CC(C)(C)C(O)(Cn1cncn1)C1=NOC(COc2ccc(-c3ccccc3)cc2)C1 (single isomer, unassigned) [Compound 229]"
unit_text = "%"
reading = 0

[[record]]
compound = "CC(C)(C)CC(O)(Cn1cncn1)C1=NOC(Cc2ccc(C(F)(F)F)cc2)C1 (single isomer, unassigned) [Compound 226]"
unit_text = "%"
reading = 100

[[record]]
compound = "Cc1ccc(OCC2CC(C(O)(Cn3cncn3)C(C)(C)C)=NO2)cc1 (single isomer, unassigned) [Compound 234]"
unit_text = "%"
reading = 0

[[record]]
compound = "CC(C)(C)C(O)(Cn1cncn1)C1=NOC(COc2cccc(C(F)(F)F)c2)C1 (single isomer, unassigned) [Compound 254]"
unit_text = "%"
reading = 100

[[record]]
compound = "OC(Cn1cncn1)(Cn1cncn1)C1=NOC(COc2ccc(Cl)cc2)C1 (stereo not drawn) [Compound 248]"
unit_text = "%"
reading = 100

[[record]]
compound = "CC(C)(C)C(O)(Cn1cncn1)C1=NOC(COc2cccc(Cl)c2)C1 (single isomer, unassigned) [Compound 231]"
unit_text = "%"
reading = 100

[[record]]
compound = "COc1ccc(OCC2CC(C(O)(Cn3cncn3)C(C)(C)C)=NO2)cc1 (single isomer, unassigned) [Compound 260]"
unit_text = "%"
reading = 98

[[record]]
compound = "OC(Cn1cncn1)(C1=NOC(COc2ccc(Cl)cc2)C1)C1(Cl)CC1 (single isomer, unassigned) [Compound 252]"
unit_text = "%"
reading = 100

[[record]]
compound = "CC(C)(C)CC(O)(Cn1cncn1)C1=NOC(COc2ccc(C(F)(F)F)cc2)C1 (single isomer, unassigned) [Compound 240]"
unit_text = "%"
reading = 100

[[record]]
compound = "CC1(C(O)(Cn2cncn2)C2=NOC(COc3ccc(Br)cc3)C2)CC1 (single isomer, unassigned) [Compound 238]"
unit_text = "%"
reading = 100


The reported numbers originate from patent US20160242416A1.
